This collection of values is drawn from patent US20090281054A1.

Test system: M. abscessus (MAB; ATCC 700869)
Experiment: MIC by microdilution method in 7H9 broth
Format: cell-based
Settings: Mycobacteroides abscessus, ATCC700869; MAB 700869; read-out: MIC
compounds and their reported MIC
All answers are understood in µg/mL, so give the number only.

{"compound": "CCCCCCCCCC(=O)O[C@@H]1[C@H](OC)[C@@H]([C@@H](O[C@H]2OC(C(=O)N[C@H]3CCC[C@@H](C)NC3=O)=C[C@H](O)[C@@H]2O)C(N)=O)O[C@H]1n1ccc(=O)[nH]c1=O", "MIC [µg/mL]": 0.5}

# evaluate next
Entry NCC[C@H](O)C(=O)N[C@@H]1C[C@H](N)[C@@H](O[C@H]2O[C@H](CN)[C@@H](O)[C@H](O)[C@H]2O)[C@H](O)[C@H]1O[C@H]1O[C@H](CO)[C@@H](O)[C@H](N)[C@H]1O [AMK, amikacin, reference compound] has what MIC?
4

---

compounds and their reported MIC
Tested on: M. abscessus (MAB; ATCC 700869)
Assay: MIC by microdilution method in 7H9 broth
Type: cell-based
Settings: Mycobacteroides abscessus, ATCC700869; MAB 700869; read-out: MIC
The figure you give is taken to be in µg/mL; do not add the unit.

{"compound": "CO[C@H]1[C@@H](O)[C@H](n2ccc(=O)[nH]c2=O)O[C@@H]1[C@@H](O[C@H]1OC(C(=O)Nc2ccc(F)c(C(F)(F)F)c2)=C[C@H](O)[C@@H]1O)C(N)=O", "measured-target": "M. abscessus (MAB; ATCC 700869)", "MIC, µg/mL": 8}
{"compound": "[H]/N=C(/N)N[C@H]1[C@H](O)[C@@H](O)[C@H](O[C@@H]2O[C@@H](C)[C@](O)(C=O)[C@H]2O[C@@H]2O[C@@H](CO)[C@H](O)[C@@H](O)[C@@H]2NC)[C@@H](N/C(N)=N\\[H])[C@@H]1O [SM, streptomycin, reference compound]", "measured-target": "M. abscessus (MAB; ATCC 700869)", "MIC, µg/mL": 8}

Here's the next entry for you.
Would you kindly share the measured MIC for CO[C@H]1[C@@H](O)[C@H](n2ccc(=O)[nH]c2=O)O[C@@H]1[C@@H](O[C@H]1OC(C(=O)N[C@H]2CCC[C@@H](C)NC2=O)=C[C@H](O)[C@@H]1O)C(N)=O ?
16
